Molecular target: Luciferin 4-monooxygenase (Photinus pyralis) (UniProt P08659)
Sequence (P08659 whole entry, looked up): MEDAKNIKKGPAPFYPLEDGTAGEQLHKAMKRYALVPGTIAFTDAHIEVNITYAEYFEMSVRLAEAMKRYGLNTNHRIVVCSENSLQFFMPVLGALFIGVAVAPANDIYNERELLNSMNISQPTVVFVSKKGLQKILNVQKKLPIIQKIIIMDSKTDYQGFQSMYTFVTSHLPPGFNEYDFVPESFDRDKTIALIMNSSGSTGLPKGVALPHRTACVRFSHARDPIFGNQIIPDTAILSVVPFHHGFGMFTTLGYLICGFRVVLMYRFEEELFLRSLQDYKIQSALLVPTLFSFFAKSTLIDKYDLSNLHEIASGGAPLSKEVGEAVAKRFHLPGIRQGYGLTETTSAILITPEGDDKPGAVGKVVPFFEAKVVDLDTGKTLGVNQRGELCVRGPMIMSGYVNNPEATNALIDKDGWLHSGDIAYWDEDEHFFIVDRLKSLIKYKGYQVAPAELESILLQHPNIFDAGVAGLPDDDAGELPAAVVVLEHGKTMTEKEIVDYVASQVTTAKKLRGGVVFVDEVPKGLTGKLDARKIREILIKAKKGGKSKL
Assay: firefly luciferase enzyme inhibitors, primary screen, biochemical, luminescence, purified enzyme, 2006 set (AID 1141);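 further: cell-free assay with purified firefly luciferase at 100 ng per well in PBS; test concentration not given here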
Conditions: SteadyGlo luminescence, 30 min, higher = more signal, called active from +8 up or from −8 down
Respond with 1 for z-score values of 0.6 and above, -1 for values below.

These solved cases illustrate the format of a correct answer.
CCOC(=O)[C@H]1C/C=C/C[C@H](C(=O)OCC)C(=O)O[C@H]2[C@@H](OC)O[C@H](CO)[C@@H](OC(=O)c3c(OC)cccc3OC)[C@@H]2OC1=O : -1
COC(=O)[C@@]1(Cc2ccc(OC)cc2)[C@H]2c3cc(C(=O)N4CCCC4)n(Cc4ccc(C)c(F)c4F)c3C[C@H]2CN1C(=O)c1ccccc1 : 1
COCCOC(=O)N1C(=O)[C@@]2(c3cc(C#CC4(O)CCCCCC4)ccc31)[C@H](c1ccc(OCCO)cc1)N1[C@H](c3ccccc3)[C@H](c3ccccc3)OC(=O)[C@H]1[C@@H]2C(=O)N1CCN(c2ncccn2)CC1 : -1
COc1cc2c(cc1O)C(c1cccs1)N(C)CC2 (stereo unspecified) : -1

Task item: Would you say COC(=O)[C@@]1(Cc2ccc(OC)cc2)[C@H]2c3cc(C(=O)N(C)C)n(CCc4ccccn4)c3C[C@H]2CN1C(=O)c1ccccc1 shows z-score at minimum 0.6?
Reply: 1

Hey, just so you know, these numbers are from PubChem BioAssay.
